Structures can show the parent of a compound that is named as a salt.
property.name: melting point (°C)
Write down the numeric answer in °C and omit the unit.

In: Name the reported melting point value associated with the molecule O=c1[nH]c2ccc(Cl)cc2cc1C(c1ccc(Cl)cc1)C1(O)CCNC(CO)C1 (stereo not shown) [Compound 20]
Out: 232

In: Name the reported melting point value associated with the molecule COc1nc2ccc(Br)cc2cc1C(c1ccccc1)C1(O)CCNC(Cc2ccccc2)C1 (stereo not shown) [Compound 74]
Out: 157

In: Name the reported melting point value associated with the molecule COc1nc2ccc(Cl)cc2cc1C(c1ccc(Cl)cc1)C1(O)CCNCC1c1ccccc1 (stereo not shown) (as salt: fumarate) [Compound 412]
Out: 166

In: Name the reported melting point value associated with the molecule CSc1ccc2[nH]c(=O)c(C(c3cccc(Cl)c3)C3(O)CCNC(c4ccc(F)cc4C)C3)cc2c1 (stereo not shown) [Compound 176]
Out: 192

In: Name the reported melting point value associated with the molecule COc1nc2ccc(F)cc2cc1C(c1ccccc1)C1(O)CCNC(CO)C1 (stereo not shown) [Compound 29]
Out: 135
